# Species on record: Rattus norvegicus
# TEST METHOD NOTES: Open TG-GATES - Regimen: Daily Repeat
# Format: toxicity, organism-based, Sprague-Dawley
# Set-up: regimen Daily Repeat, gender Male, age 6 weeks
# TEST SETTINGS: in vivo, po, 0 mg/kg, […], tissue Blood, route gavage, dose level Control, time 14 day
QUANTITY MEASURED: MCH
State the value with its unit after it.

Look over these answered cases.
CCN(CC)C(=S)SSC(=S)N(CC)CC = 20.1 pg
CCCCNC(=O)NS(=O)(=O)c1ccc(C)cc1 [TOLBUTAMIDE] = 19.9 pg
CCO = 20.3 pg
CN(C/C=C/C#CC(C)(C)C)Cc1cccc2ccccc12 = 20.1 pg
CC(=O)[C@@]1(O)CC[C@H]2[C@@H]3C=C(Cl)C4=CC(=O)CC[C@]4(C)[C@H]3CC[C@@]21C = 19.9 pg

[Q] Query (compound): O=c1ccc2ccccc2o1 ; field requested: MCH
[A] 20.6 pg

[Q] Item under review: O=C(O)c1ccccc1Nc1ccccc1 . Reported MCH?
[A] 20.2 pg

[Q] // returns reported MCH for input NS(=O)(=O)c1cc(C(=O)O)c(NCc2ccco2)cc1Cl [FUROSEMIDE]
[A] 21 pg

[Q] Bench note: what MCH did Nc1ccc(Cc2ccc(N)cc2)cc1 show?
[A] 20.2 pg

[Q] Reported MCH for CN(CCOc1ccc(CC2SC(=O)NC2=O)cc1)c1ccccn1.O=C(O)/C=C\C(=O)O (stereo unspecified) [ROSIGLITAZONE MALEATE] : what is it?
[A] 20.6 pg

[Q] Field request: MCH | item: CC(S)C(=O)NCC(=O)O (stereo unspecified)
[A] 20.5 pg

###

# Species on record: Rattus norvegicus
# TEST METHOD NOTES: Open TG-GATES - Regimen: Single
# Format: toxicity, organism-based, Sprague-Dawley
# Design: regimen Single, gender Male, age 6 weeks
# TEST SETTINGS: in vivo, po, 0 mg/kg, 24 h, tissue Blood, route gavage, dose level Control
QUANTITY MEASURED: MCV (fL)
Respond with the bare value in fL.

# example entries with known answers
CC(=O)[C@@]1(O)CC[C@H]2[C@@H]3C=C(Cl)C4=CC(=O)CC[C@]4(C)[C@H]3CC[C@@]21C = 63.1
O=C(O)c1ccccc1Nc1ccccc1 = 63.3

[Q] Any idea what its MCV is? The compound is CN(C)CCCN1c2ccccc2Sc2ccc(Cl)cc21
[A] 62.8

[Q] Entry CN(CCOc1ccc(CC2SC(=O)NC2=O)cc1)c1ccccn1.O=C(O)/C=C\C(=O)O (stereo not drawn) [ROSIGLITAZONE MALEATE] has what MCV?
[A] 65.6

###

# Organism: Rattus norvegicus
# TEST METHOD NOTES: Open TG-GATES - Regimen: Daily Repeat
# Type: toxicity, organism-based, Sprague-Dawley
# Parameters: regimen Daily Repeat, gender Male, age 6 weeks
# TEST SETTINGS: in vivo, po, 0 mg/kg, […], tissue Plasma, route gavage, dose level Control, time 7 day
QUANTITY MEASURED: IP (mg/dL)
Report only the number, with the unit mg/dL understood.

Answered examples (5):
CCN(CC)C(=S)SSC(=S)N(CC)CC = 7.9
CC(=O)[C@@]1(O)CC[C@H]2[C@@H]3C=C(Cl)C4=CC(=O)CC[C@]4(C)[C@H]3CC[C@@]21C [CHLORMADINONE] = 7
COc1ccc([C@@H]2Sc3ccccc3N(CCN(C)C)C(=O)[C@@H]2OC(C)=O)cc1 [DILTIAZEM] = 7.6
O=c1ccc2ccccc2o1 [COUMARIN] = 7.5
NS(=O)(=O)c1cc(C(=O)O)c(NCc2ccco2)cc1Cl [FUROSEMIDE] = 7.8

For the next question, use this compound.
[Q] Using the record for CCCCC1C(=O)N(c2ccccc2)N(c2ccccc2)C1=O [PHENYLBUTAZONE] , report its IP.
[A] 8.9

###

# Organism: Rattus norvegicus
# TEST METHOD NOTES: Open TG-GATES - Regimen: Daily Repeat
# Format: toxicity, organism-based, Sprague-Dawley
# Parameters: regimen Daily Repeat, gender Male, age 6 weeks
# TEST SETTINGS: in vivo, po, 100 mg/kg, […], tissue Blood, route gavage, dose level Low, time 7 day
Form field: WBC (one value per entry).
Form entry: value (x10_2/uL) — number only.

Answered examples (3):
CC(=O)[C@@]1(O)CC[C@H]2[C@@H]3C=C(Cl)C4=CC(=O)CC[C@]4(C)[C@H]3CC[C@@]21C = 118.1
CCCCNC(=O)NS(=O)(=O)c1ccc(C)cc1 [TOLBUTAMIDE] = 123.8
CC(S)C(=O)NCC(=O)O (centres undefined) = 109.7

# evaluate next
[Q] Field request: WBC | item: O=C(O)c1ccccc1Nc1ccccc1
[A] 82.6

###

# Species on record: Rattus norvegicus
# TEST METHOD NOTES: Open TG-GATES - Regimen: Daily Repeat
# Format: toxicity, organism-based, Sprague-Dawley
# Parameters: regimen Daily Repeat, gender Male, age 6 weeks
# TEST SETTINGS: in vivo, po, 1000 mg/kg, […], tissue Blood, route gavage, dose level High, time 7 day
QUANTITY MEASURED: Lym (%)
Please reply with the bare figure in % and do not write the unit itself.

Sample answers from the record:
CC(S)C(=O)NCC(=O)O (centres undefined) = 77
O=C(O)c1ccccc1Nc1ccccc1 = 72.3
CC(=O)[C@@]1(O)CC[C@H]2[C@@H]3C=C(Cl)C4=CC(=O)CC[C@]4(C)[C@H]3CC[C@@]21C = 84.4

Here's the next entry for you.
[Q] Find the recorded Lym belonging to CCCCNC(=O)NS(=O)(=O)c1ccc(C)cc1 [TOLBUTAMIDE] and report it.
[A] 80

###

# Species: Rattus norvegicus
# TEST METHOD NOTES: Open TG-GATES - Regimen: Single
# Assay type: toxicity, organism-based, Sprague-Dawley
# Parameters: regimen Single, gender Male, age 6 weeks
# TEST SETTINGS: in vivo, po, 0 mg/kg, 24 h, tissue Plasma, route gavage, dose level Control
QUANTITY MEASURED: TP (g/dL)
I only need the number, in g/dL, no unit after it.

O=c1ccc2ccccc2o1 = 5.6

[Q] Looking for the measured TP of CN(CCOc1ccc(CC2SC(=O)NC2=O)cc1)c1ccccn1.O=C(O)/C=C\C(=O)O (stereo not given) [ROSIGLITAZONE MALEATE] , can you help?
[A] 5.6

[Q] Which measured TP value corresponds to O=C(O)c1ccccc1Nc1ccccc1 ?
[A] 5.6

[Q] Requested read-out: TP. Entry: CC(S)C(=O)NCC(=O)O (stereo not given)
[A] 5.4

[Q] Requested field: TP. Item: COc1ccc([C@@H]2Sc3ccccc3N(CCN(C)C)C(=O)[C@@H]2OC(C)=O)cc1
[A] 5.4

[Q] What value of TP has been recorded for this entry: CN(C)CCCN1c2ccccc2Sc2ccc(Cl)cc21
[A] 5.6

[Q] Which TP is reported for this compound? CN(C/C=C/C#CC(C)(C)C)Cc1cccc2ccccc12
[A] 5.7

[Q] So what's the measured TP for this one? Nc1ccc(Cc2ccc(N)cc2)cc1
[A] 5.5

[Q] // returns reported TP for input NS(=O)(=O)c1cc(C(=O)O)c(NCc2ccco2)cc1Cl [FUROSEMIDE]
[A] 5.7

###

gamma-GTP values, listed per item
# Organism: Rattus norvegicus
# TEST METHOD NOTES: Open TG-GATES - Regimen: Daily Repeat
# Type: toxicity, organism-based, Sprague-Dawley
# Parameters: regimen Daily Repeat, gender Male, age 6 weeks
# TEST SETTINGS: in vivo, po, 1000 mg/kg, […], tissue Plasma, route gavage, dose level High, time 14 day
The figure you give is taken to be in IU/L; do not add the unit.

CC(=O)[C@@]1(O)CC[C@H]2[C@@H]3C=C(Cl)C4=CC(=O)CC[C@]4(C)[C@H]3CC[C@@]21C = 2
O=C(O)c1ccccc1Nc1ccccc1 = 2
CC(S)C(=O)NCC(=O)O (centres undefined) = 2

Now let's try a different one.
[Q] Param item = CCCCNC(=O)NS(=O)(=O)c1ccc(C)cc1 [TOLBUTAMIDE] ; retrieve measured gamma-GTP.
[A] 1

###

# Species on record: Rattus norvegicus
# TEST METHOD NOTES: Open TG-GATES - Regimen: Daily Repeat
# Assay type: toxicity, organism-based, Sprague-Dawley
# Parameters: regimen Daily Repeat, gender Male, age 6 weeks
# TEST SETTINGS: in vivo, po, 100 mg/kg, […], tissue Plasma, route gavage, dose level Low, time 7 day
QUANTITY MEASURED: K

Example entries and their recorded answers appear below.
CC(S)C(=O)NCC(=O)O (centres undefined) [TIOPRONIN] = 4.2 meq/L
O=C(O)c1ccccc1Nc1ccccc1 [FENAMIC ACID] = 4.3 meq/L
CC(=O)[C@@]1(O)CC[C@H]2[C@@H]3C=C(Cl)C4=CC(=O)CC[C@]4(C)[C@H]3CC[C@@]21C [CHLORMADINONE] = 4.2 meq/L

Shift focus to the following entry.
[Q] Recorded K for CCCCNC(=O)NS(=O)(=O)c1ccc(C)cc1 [TOLBUTAMIDE] , please?
[A] 4.1 meq/L
